System: MS2 coat protein
Assay: apparent KD of MS2 coat protein; higher = weaker reporter binding
Conditions: Eterna round: R107; input ligand: tryptophan 2.4 mM
Think of 20 nM as a floor: if apparent KD of MS2 coat protein stands on it or above, it is satisfied; beneath it, not satisfied.

Sequence entry	Class label
ACAUGAGGAUCACCCAUGUGCCGUCUUGAUACCAGACCCGAAGUAGUCCCUUGGCAGCAACUACGUGACGGUCGCGCAUGUGUAG [kaomullin]	not satisfied
UGUACUAUGUGAAGGAGCGAGAAGGAGCGAACAUGAGGAUCACCCAUGUACAGGUAGGUCGCUCAGGUAGGUCGCACAUAGUACU [ArgBS - Double aptamer]	not satisfied
CUGUUUACAUGAGCCCGUCAUAUAUACGAUACCAGUUAAAGAUGAAACCCUUGGCAGCGUAGGACAUGAGGAUCACCCAUGUGCC [theeternabot_exclusion_MS2_Theo_A_17]	not satisfied
GAUGAUAUUGCAGAUACCAGACACAUGAGGAUCACCCAUGUCGCUGGGUUACUGGAUCGUGUCCCUUGGCAGCUGCGAUAUCAUC [Austria]	satisfied
UAACAUGAGGAUCACCCAUGUUUAGAUGAACGAGGACCGGUACGGCCGCCACUCGAUAAGUGGCAAGAACGAGGGAUUGUAUGCU [Same State Trp A GF3]	not satisfied
AUUAUAGUUUAUAAGGAAAUUGAAACAGAAGGAGCGUGAGUAAUCACAGGUAGGUCGCUGGUAGUACAUGAGGAUCACCCAUGUU [JR_Nu_SSArginiA_Sub019]	satisfied

====

Test system: MS2 coat protein
Experiment: apparent KD of MS2 coat protein; designed switch direction (-1 OFF switch, 1 ON switch): -1; higher = weaker reporter binding
Conditions: input ligand: FMN 200 uM
Measured apparent KD of MS2 coat protein, listed per entry.
Parameter: apparent KD of MS2 coat protein

Sequence entry	Parameter	Experimental value
UUUGUUUAUGUAGGAUAUGCCUGGCGUGCCUUUGCAGAAGGACAUGAGGAUCACCCAUGUAACAUGAGGCUCACCCAUGUCGCC [salish99_ExNG1_r04_113] (Eterna round: R96, puzzle: Exclusion NG 1)	apparent KD of MS2 coat protein	134 nM
AAUAACAAGCAGAUCCUAAACAUGAGGAUCACCCAUGUGCGCGUCUUGUAAAGUACUAUCACGAAAGUGAUAGUACA (Eterna round: R97, puzzle: Sensor, turn-off variant 1)	apparent KD of MS2 coat protein	190 nM
AAUAGUCGGUAGGAUAUCCACGGAUGACCGGCAGGAGAAGGGCCGACUUGAGGAUCACCCAAGUAUGGUCCUAA [Texeonxe] (Eterna round: R97, puzzle: Exclusion 6)	apparent KD of MS2 coat protein	15.9 nM
AAUAAUAAUGUGAGGAUAUCUAGAGCUUCGGCUCUAGAGAAGGCACAUGAGGAUCACCCAUGUCUCAAUAAUAA [BmEx4/2-E4] (Eterna round: R97, puzzle: Brourd's mod of Exclusion 4)	apparent KD of MS2 coat protein	263 nM
GUACUACGAGGAUAUAUAUAAUGGGAAGCCCAGGCCAUUGCACAUGAGGAUCACCCAUGUAGAAGGCGUGGUCA [Eternabot (L2) Solution 28] (Eterna round: R97, puzzle: Exclusion 2)	apparent KD of MS2 coat protein	40.3 nM
CGAUCCGUAGAGGAUAUAGGACGUCAUAGCGAUUUAGAAGGCUACACAUGAGGAUCACCCAUGUACAUUUCAUA [Eternabot (L1) Solution 60] (Eterna round: R97, puzzle: Exclusion 6)	apparent KD of MS2 coat protein	18.9 nM
UUUAGUUUAGGAUAUGUAGAUUUUAACAUGAGGAUCACCCAUGUAGAUCCUGAAUUAACUACAGAAGGAAACAUUU [Mod of Brourd 13 - Jieux - Exclusion 5] (Eterna round: R97, puzzle: Exclusion 5)	apparent KD of MS2 coat protein	514 nM
UUUUACAAGCUAAGAUCCUACAUGAGGAUCACCCAUGUGGUCCGGUGACGUGAGUCACCGGACUUAGCUCGUCUUGG [salish99_S_TOV1_R5_087] (Eterna round: R97, puzzle: Sensor, turn-off variant 1)	apparent KD of MS2 coat protein	69.5 nM
GUCGGACAUGAGGAUCACCCAUGUGAGGAUAUCCUUUAGAGCUAUUAGUAGAUGCUUAGGAGAAGGCACUAGGG [Eternabot (L2) Solution 17] (Eterna round: R97, puzzle: Exclusion 1)	apparent KD of MS2 coat protein	93.9 nM
